Data credit: patent US20040133357A1

Documented kon across a set of binders
target: T1, purified recombinant human VEGF165 (human, UniProt P15692 27-191, glycosylated); experiment: SPR (BIAcore), purified scFv over VEGF immobilized on CM5 chip, 25 C
T1 construct: mature; Bought from Calbiochem; also called VEGF protein (Calbiochem); homodimeric VEGF protein
T1 sequence (P15692 other isoform, or with tags, fused parts or gaps limits assumed): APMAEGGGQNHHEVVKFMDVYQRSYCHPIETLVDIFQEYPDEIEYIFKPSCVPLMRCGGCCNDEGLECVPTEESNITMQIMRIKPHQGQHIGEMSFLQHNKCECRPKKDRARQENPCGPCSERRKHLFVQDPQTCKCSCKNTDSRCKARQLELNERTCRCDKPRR
Field note: include the unit after the figure.

Request: For the binder hAB3 (scFv, Single chain format; not shown: HA-His6 tag at C-terminus) scFv: EVQLVQSGGGVVQPGGSLRLSCAASGYTFTNYGMNWIRQAPGKGLEWVGWINTYTGEPTYAADFKRRVTFSLDTSKSTAYLQLNSLRAEDTAVYYCAKYPHYYGSSHWYFDVWGQGTLVTVSSGGGGSGGGGSGGGGSDIQMTQSPSSLSASVGDRVTITCSASQDISNYLNWYQQKPGKAPKVLIYFTSSLHSGVPSRFSGSGSGTDFTLTISSLQPEDFATYYCQQYSTVPWTFGQGTKVEIK , report kon.
Response: 37400 M⁻¹ s⁻¹

Request: For the binder hAB5 (scFv, Single chain format; not shown: HA-His6 tag at C-terminus) scFv: EVQLVQSGGGVVQPGGTLRLTCAASGYTFTNYGMNWVRQAPGKGLEWVGWINTYTGEPTYAADFKRRVTFSLDTSKSTAYLQMNSLRAEDTAVYYCAKYPHYYGSSHWYFDVWGQGTLVTVSSGGGGSGGGGSGGGGSDIQMTQSPSSLSASVGDRVTITCSASQDISNYLNWYQQKPGKAPKVLIYFTSSLHSGVPSRFSGSGSGTDFTLTISSLQPEDFATYYCQQYSTVPWTFGQGTKVEIK , give its reported kon.
Response: 12200 M⁻¹ s⁻¹

Request: Read the entry hAB4 (scFv, Single chain format; not shown: HA-His6 tag at C-terminus) scFv: QVQLVQSGGGVVQPGGSLRLTCAASGYTFTNYGMNWVRQAPGKGLEWVGWINTYTGEPTYAADFKRRFTISLDTSKSQAYLQMNSLRAEDTAVYYCAKYPHYYGSSHWYFDVWGQGTLVTVSSGGGGSGGGGSGGGGSDIQMTQSPSSLSASVGDRVTITCSASQDISNYLNWYQQKPGKAPKVLIYFTSSLHSGVPSRFSGSGSGTDFTLTISSLQPEDFATYYCQQYSTVPWTFGQGTKVEIK and write its reported kon.
Response: 4000 M⁻¹ s⁻¹
